FYI, the data here is from paper PMC7156458.

Target or system: Aβ42 (Homo sapiens)
Experiment notes: Th-T (thioflavin-T) assay of Aβ42 aggregation
Type: biochemical
Condition set: concentration 20, unit not given; time-course reading M139
Measure name: Th-T fluorescence of Aβ42 with compound, mean of three wells (Fig. 7a source data)

compound="C=C1CC[C@@H]2[C@](C)(CC[C@H]3O[C@H](C=C(C)C)C[C@@]23C)[C@@H]1Cc1c(OC)oc(CO)c(C)c1=O [Compound 20]" obs_value=3.041
compound="C=C1CC[C@@H]2[C@](C)(CC[C@H]3O[C@H](C=C(C)C)C[C@@]23C)[C@@H]1Cc1c(OC)oc(CO)c(C(=O)OC)c1=O [Compound 21]" obs_value=0.9666
compound="C=C1CCC2C(C)(CCC=C(C)C)C(O)CCC2(C)C1Cc1c(OC)oc(CO)c(C(=O)OC)c1=O (centres unmarked) [Compound 13]" obs_value=1.029
compound="C=C1CCC2C(C)(CCC=C(C)C)C(O)CCC2(C)C1Cc1c(OC)oc(C)c(C(=O)OC)c1=O (centres unmarked) [Compound 14]" obs_value=1.563
compound="C=C1CCC2C(C)(CCC=C(C)C)C(O)CCC2(C)C1Cc1c(OC)oc(CO)c(C)c1=O (centres unmarked) [Compound 12]" obs_value=2.207

---

# Th-T assay plate reading, mean of three wells (Supplementary Fig. 47) listing for each entry below
Target or system: Aβ42 (Homo sapiens, UniProt P05067)
Sequence (P05067 672-713): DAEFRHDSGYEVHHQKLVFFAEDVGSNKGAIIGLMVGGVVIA
Experiment notes: Th-T (thioflavin-T) assay of Aβ42 aggregation
Assay type: biochemical
Condition set: measurement M2; source data, Ab alone and No Ab as controls
Measure name: Th-T assay plate reading, mean of three wells (Supplementary Fig. 47)

molecule="C=C1CC[C@H]2[C@]3(C)C[C@H](C=C(C)C)O[C@H]3CC[C@]2(C)[C@@H]1Cc1c(OC)oc(C)c(C)c1=O [Compound 24]" obs_value=0.1686
molecule="C=C1CC[C@@H]2[C@](C)(CC[C@H]3O[C@H](C=C(C)C)C[C@@]23C)[C@@H]1Cc1c(OC)oc(CO)c(C)c1=O [Compound 20]" obs_value=0.2238
molecule="C=C1CCC2C(C)(CCC=C(C)C)C(O)CCC2(C)C1Cc1c(OC)oc(CO)c(C)c1=O (stereo not shown) [Compound 12]" obs_value=0.2498
molecule="CC(C)=CCC/C(C)=C/CC/C(C)=C/CC/C(C)=C/Cc1c(O)c(C)c(C)oc1=O [Compound 2]" obs_value=0.4337
molecule="C=C1CC[C@@H]2[C@](C)(CC[C@H]3O[C@H](C=C(C)C)C[C@@]23C)[C@@H]1Cc1c(OC)oc(CO)c(C(=O)OC)c1=O [Compound 21]" obs_value=0.2228
molecule="C=C1CCC2C(C)(CC(=O)C=C(C)C)C(O)CCC2(C)C1Cc1c(OC)oc(CO)c(C)c1=O (stereo not shown) [Compound 19]" obs_value=0.2823
molecule="C=C1CC[C@H]2[C@]3(C)C[C@H](C=C(C)C)O[C@H]3CC[C@]2(C)[C@@H]1Cc1c(O)c(C)c(C)oc1=O [Compound 6, subglutinol B]" obs_value=0.3077

---

Target or system: Aβ42 (Homo sapiens)
Experiment notes: Th-T (thioflavin-T) assay of Aβ42 aggregation
Format: biochemical
Condition set: Aβ42 aggregation time course, reading M134
Let's look at some compounds and their measured Th-T fluorescence, mean of three wells.
Measure name: Th-T fluorescence, mean of three wells

compound=C=C1CC[C@H]2[C@]3(C)C[C@H](C=C(C)C)O[C@H]3CC[C@]2(C)[C@@H]1Cc1c(OC)oc(C)c(C)c1=O measure_name="Th-T fluorescence, mean of three wells" obs_value=3.8749
compound="C=C1CCC2C(C)(CCC=C(C)C)C(O)CCC2(C)C1Cc1c(O)c(C)c(C)oc1=O (stereo not shown) [Compound 9, higginsianin B]" measure_name="Th-T fluorescence, mean of three wells" obs_value=2.786
compound="C=C1CCC2C(C)(CC(=O)C=C(C)C)C(O)CCC2(C)C1Cc1c(OC)oc(CO)c(C)c1=O (stereo not shown)" measure_name="Th-T fluorescence, mean of three wells" obs_value=3.586
compound=C=C1CC[C@H]2[C@]3(C)C[C@@H](C=C(C)C)O[C@H]3CC[C@]2(C)[C@@H]1Cc1c(OC)oc(CO)c(C)c1=O measure_name="Th-T fluorescence, mean of three wells" obs_value=3.622
compound=C=C1CC[C@@H]2[C@](C)(CC[C@H]3O[C@H](C=C(C)C)C[C@@]23C)[C@@H]1Cc1c(O)c(C)c(C)oc1=O measure_name="Th-T fluorescence, mean of three wells" obs_value=2.998
compound="C=C1CCC2C(C)(CC(=O)C=C(C)C)C(O)CCC2(C)C1Cc1c(OC)oc(C)c(C)c1=O (stereo not shown)" measure_name="Th-T fluorescence, mean of three wells" obs_value=3.525
compound="C=C1CCC2C3(C)CC(C=C(C)C)OC3CCC2(C)C1Cc1c(OC)oc(C)c(C)c1=O (stereo not shown)" measure_name="Th-T fluorescence, mean of three wells" obs_value=3.777
compound="C=C1CCC2C(C)(CC(=O)C=C(C)C)C(O)CCC2(C)C1Cc1c(O)c(C)c(C)oc1=O (stereo not shown)" measure_name="Th-T fluorescence, mean of three wells" obs_value=3.427
compound=C=C1CC[C@H]2[C@]3(C)C[C@H](C=C(C)C)O[C@H]3CC[C@]2(C)[C@@H]1Cc1c(O)c(C)c(C)oc1=O measure_name="Th-T fluorescence, mean of three wells" obs_value=3.045
compound=C=C1CC[C@H]2[C@]3(C)C[C@H](C=C(C)C)O[C@H]3CC[C@]2(C)[C@@H]1Cc1c(OC)oc(CO)c(C)c1=O measure_name="Th-T fluorescence, mean of three wells" obs_value=3.764
compound=C=C1CC[C@H]2[C@]3(C)C[C@@H](C=C(C)C)O[C@H]3CC[C@]2(C)[C@@H]1Cc1c(O)c(C)c(C)oc1=O measure_name="Th-T fluorescence, mean of three wells" obs_value=2.64
compound="C=C1CCC2C(C)(CCC=C(C)C)C(O)CCC2(C)C1Cc1c(OC)oc(C)c(C)c1=O (stereo not shown) [Compound 15, viridoxin A hydrolysate]" measure_name="Th-T fluorescence, mean of three wells" obs_value=3.304
compound=CC(C)=CCC/C(C)=C/CC/C(C)=C/CC/C(C)=C/Cc1c(O)c(C)c(C)oc1=O measure_name="Th-T fluorescence, mean of three wells" obs_value=2.942
